system.tested: T1, SARS-CoV-2 S2 (aa686-1208) (Wuhan) (SARS-CoV-2 Wuhan, UniProt P0DTC2 686-1208)
T1 construct: NRC; FLAG, 6xHis tags
test.description: SPR, antigen on chip
outcome.measure: binding result

[[record]]
binder = "NRCoV2-15 VHH (VHH) VHH: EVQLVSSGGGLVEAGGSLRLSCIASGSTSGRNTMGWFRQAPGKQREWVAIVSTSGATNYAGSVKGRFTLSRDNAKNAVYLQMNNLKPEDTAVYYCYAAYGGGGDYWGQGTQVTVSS"
obs_value = "no binding"

[[record]]
binder = "NRCoV2-03 VHH (VHH) VHH: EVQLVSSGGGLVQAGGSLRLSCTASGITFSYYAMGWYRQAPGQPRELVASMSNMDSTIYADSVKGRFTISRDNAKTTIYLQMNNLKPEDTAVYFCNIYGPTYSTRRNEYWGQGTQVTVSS"
obs_value = "no binding"

[[record]]
binder = "NRCoV2-06 VHH (VHH) VHH: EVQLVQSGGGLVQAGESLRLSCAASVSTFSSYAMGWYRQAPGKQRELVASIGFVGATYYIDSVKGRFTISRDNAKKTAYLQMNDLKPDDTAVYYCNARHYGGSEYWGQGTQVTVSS"
obs_value = "no binding"

